target: Hck (UniProt P08631); assay: phosphorylation enrichment, bacterial display (enrichment ratio); higher = better substrate or ligand; peptides without Tyr show the background;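 also: 11-residue human phosphosite peptides and single-mutation variants displayed on the E. coli surface, counted by deep sequencing, each peptide's frequency after selection divided by its frequency in the unselected input library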;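 also: frequency after pTyr selection over input frequency; kinase dosed for 20-30% of maximal phosphorylation in three min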
Sequence (P08631 whole entry, looked up): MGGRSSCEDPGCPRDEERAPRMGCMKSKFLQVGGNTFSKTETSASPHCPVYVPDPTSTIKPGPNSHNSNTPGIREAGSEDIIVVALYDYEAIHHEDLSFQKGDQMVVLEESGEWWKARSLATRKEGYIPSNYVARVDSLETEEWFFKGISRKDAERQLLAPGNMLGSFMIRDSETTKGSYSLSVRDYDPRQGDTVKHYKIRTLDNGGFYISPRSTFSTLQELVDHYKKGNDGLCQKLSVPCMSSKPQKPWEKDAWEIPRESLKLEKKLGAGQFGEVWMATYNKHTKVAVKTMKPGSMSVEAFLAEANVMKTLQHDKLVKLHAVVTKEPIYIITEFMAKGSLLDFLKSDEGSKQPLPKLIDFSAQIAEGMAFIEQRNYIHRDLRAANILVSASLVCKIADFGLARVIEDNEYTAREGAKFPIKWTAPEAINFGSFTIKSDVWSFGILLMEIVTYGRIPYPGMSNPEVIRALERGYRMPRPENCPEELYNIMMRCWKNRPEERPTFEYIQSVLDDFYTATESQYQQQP
# phosphorylation enrichment per entry
readout type: phosphorylation enrichment

> print(dat)
                                chain         tested.system  measured.number
 1  FMKEPYIQSRF [HIPK4_Y175_V171M_YF]  Hck (UniProt P08631)            0.393
 2     LEQQKYTVTID [IKBKB_Y199_V203I]  Hck (UniProt P08631)            0.682
 3            ELTAKYLNYYQ [P3H4_Y181]  Hck (UniProt P08631)            0.493
 4         ADRNHYRRFPR [YBX1_Y145_YF]  Hck (UniProt P08631)            0.556
 5       ASMAKYFASEI [ACADSB_Y372_YF]  Hck (UniProt P08631)            0.384
 6         RAIGYYSATSK [FAM120A_Y328]  Hck (UniProt P08631)             0.37
 7           MASTSYDFCRV [BST2_Y6_YF]  Hck (UniProt P08631)            0.473
 8    FYDANCDGKEY [MAPRE2_Y162_Y162C]  Hck (UniProt P08631)            0.563
 9     KLIETCFSKNF [PLP1_Y50_Y50C_YF]  Hck (UniProt P08631)            0.492
10     VYSIDYYRVGG [NTRK2_Y706_T704I]  Hck (UniProt P08631)             3.95
11      TTKGAYSLSVR [YES1_Y194_I198V]  Hck (UniProt P08631)            0.483
12   NTGDFCDLFGG [PTPN11_Y63_Y63C_YF]  Hck (UniProt P08631)            0.578
13        VFSTDYFRVGG [NTRK2_Y706_YF]  Hck (UniProt P08631)            0.459
14        SSNLFYRWLTA [CNGA3_Y169_YF]  Hck (UniProt P08631)            0.557
